Ok so here's the combined literature set: pIC50 for UniProtKB P22411.
Sequence (P22411 whole entry): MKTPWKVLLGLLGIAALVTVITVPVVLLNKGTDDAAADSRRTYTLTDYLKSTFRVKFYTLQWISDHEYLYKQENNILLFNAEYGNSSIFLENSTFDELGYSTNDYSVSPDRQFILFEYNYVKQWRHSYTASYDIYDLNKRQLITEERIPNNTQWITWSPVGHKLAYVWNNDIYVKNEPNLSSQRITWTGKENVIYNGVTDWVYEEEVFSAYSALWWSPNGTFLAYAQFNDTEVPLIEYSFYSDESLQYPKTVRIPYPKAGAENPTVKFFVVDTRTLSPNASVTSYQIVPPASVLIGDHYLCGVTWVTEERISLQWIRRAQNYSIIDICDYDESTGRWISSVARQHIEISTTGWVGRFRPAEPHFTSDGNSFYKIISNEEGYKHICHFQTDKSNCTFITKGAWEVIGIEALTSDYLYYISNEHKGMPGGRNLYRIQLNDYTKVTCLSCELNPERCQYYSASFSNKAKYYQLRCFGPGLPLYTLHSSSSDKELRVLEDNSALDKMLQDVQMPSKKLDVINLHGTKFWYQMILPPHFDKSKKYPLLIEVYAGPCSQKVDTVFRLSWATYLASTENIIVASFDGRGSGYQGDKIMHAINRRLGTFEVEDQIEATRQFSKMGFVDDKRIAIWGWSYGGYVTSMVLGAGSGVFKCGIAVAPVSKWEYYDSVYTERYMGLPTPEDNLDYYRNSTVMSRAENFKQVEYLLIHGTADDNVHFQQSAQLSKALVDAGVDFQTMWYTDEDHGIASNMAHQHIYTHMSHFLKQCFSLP
pIC50: −log10 of the molar value.
measure.name: pIC50

Known results for molecules:
Ask: GET /values?readout=pIC50&system=UniProtKB P22411&item= CC(C)c1c(C(=O)Nc2ccccc2)c(-c2ccccc2)c(-c2ccc(F)cc2)n1CC[C@@H](O)C[C@@H](O)CC(=O)O
Result: 3.76

Ask: GET /values?readout=pIC50&system=UniProtKB P22411&item= N#C[C@@H]1CSCN1C(=O)CN(N)C1CCN(CC(=O)Nc2ncccn2)CC1
Result: 6.84

Ask: GET /values?readout=pIC50&system=UniProtKB P22411&item= NCC(c1ccccc1Cl)N1CCOCC1 (configuration not stated)
Result: 4.34

Ask: GET /values?readout=pIC50&system=UniProtKB P22411&item= N#Cc1cc(CN2CCC(N(N)CC(=O)N3CSC[C@H]3C#N)CC2)ccc1-c1ccccc1
Result: 5.99

P: COC(=O)NN(CC(=O)N1CSC[C@H]1C#N)C1CCN(CC(=O)Nc2ccc(Cl)cn2)CC1
Q: CS(=O)(=O)N1CCC(N(N)CC(=O)N2CSC[C@H]2C#N)CC1
R: CC1CCC(C(=O)N2CCC(N(N)CC(=O)N3CSC[C@H]3C#N)CC2)CC1 (some centres not stated)
Ask: Arrange the 3 molecules by rising pIC50, starting with the smallest. Put the labels in the order asked and list them.
Result: P, Q, R
(P: 4.42, Q: 5.84, R: 6.06)
